Experiment: PSD of bulk API compared to PSD of API in vial after dry heat sterilization
Type: physicochemical
Settings: Table 3; bulk API or API in vial after dry heat sterilization 150-160° C., two hours, per sample name
Procedure: For the purposes herein, particle size distribution (PSD) is determined as the percent volume, i.e. D(90) and D(3,2) and was measured by laser diffraction using a Malvern Mastersizer 2000 equipped with a Hydro 2000 S dispersion unit. […] Sample preparation: Samples were prepared as concentrated suspensions. […] A paste was obtained by mild mixing, and an additional quantity (1 ml) of saturated water dispersion medium was added in order to obtain a concentrated homogeneous suspension. […]
Entries and their measured D(3,2) follow.

{"compound": "Cc1cc2c(s1)Nc1ccccc1N=C2N1CCN(C)CC1 [Batch S1-220]", "D(3,2), μm": 5.8}
{"compound": "Cc1cc2c(s1)Nc1ccccc1N=C2N1CCN(C)CC1 [Batch M2-121]", "D(3,2), μm": 7.5}
{"compound": "Cc1cc2c(s1)Nc1ccccc1N=C2N1CCN(C)CC1 [Batch S1-920]", "D(3,2), μm": 3.9}
{"compound": "Cc1cc2c(s1)Nc1ccccc1N=C2N1CCN(C)CC1 [Batch S3-020]", "D(3,2), μm": 5.2}
{"compound": "Cc1cc2c(s1)Nc1ccccc1N=C2N1CCN(C)CC1 [Batch M1-010]", "D(3,2), μm": 4.7}
{"compound": "Cc1cc2c(s1)Nc1ccccc1N=C2N1CCN(C)CC1 [Batch M6-020]", "D(3,2), μm": 6.5}
